Target: Tie2 (Homo sapiens)
Sequence (Q02763 23-1124): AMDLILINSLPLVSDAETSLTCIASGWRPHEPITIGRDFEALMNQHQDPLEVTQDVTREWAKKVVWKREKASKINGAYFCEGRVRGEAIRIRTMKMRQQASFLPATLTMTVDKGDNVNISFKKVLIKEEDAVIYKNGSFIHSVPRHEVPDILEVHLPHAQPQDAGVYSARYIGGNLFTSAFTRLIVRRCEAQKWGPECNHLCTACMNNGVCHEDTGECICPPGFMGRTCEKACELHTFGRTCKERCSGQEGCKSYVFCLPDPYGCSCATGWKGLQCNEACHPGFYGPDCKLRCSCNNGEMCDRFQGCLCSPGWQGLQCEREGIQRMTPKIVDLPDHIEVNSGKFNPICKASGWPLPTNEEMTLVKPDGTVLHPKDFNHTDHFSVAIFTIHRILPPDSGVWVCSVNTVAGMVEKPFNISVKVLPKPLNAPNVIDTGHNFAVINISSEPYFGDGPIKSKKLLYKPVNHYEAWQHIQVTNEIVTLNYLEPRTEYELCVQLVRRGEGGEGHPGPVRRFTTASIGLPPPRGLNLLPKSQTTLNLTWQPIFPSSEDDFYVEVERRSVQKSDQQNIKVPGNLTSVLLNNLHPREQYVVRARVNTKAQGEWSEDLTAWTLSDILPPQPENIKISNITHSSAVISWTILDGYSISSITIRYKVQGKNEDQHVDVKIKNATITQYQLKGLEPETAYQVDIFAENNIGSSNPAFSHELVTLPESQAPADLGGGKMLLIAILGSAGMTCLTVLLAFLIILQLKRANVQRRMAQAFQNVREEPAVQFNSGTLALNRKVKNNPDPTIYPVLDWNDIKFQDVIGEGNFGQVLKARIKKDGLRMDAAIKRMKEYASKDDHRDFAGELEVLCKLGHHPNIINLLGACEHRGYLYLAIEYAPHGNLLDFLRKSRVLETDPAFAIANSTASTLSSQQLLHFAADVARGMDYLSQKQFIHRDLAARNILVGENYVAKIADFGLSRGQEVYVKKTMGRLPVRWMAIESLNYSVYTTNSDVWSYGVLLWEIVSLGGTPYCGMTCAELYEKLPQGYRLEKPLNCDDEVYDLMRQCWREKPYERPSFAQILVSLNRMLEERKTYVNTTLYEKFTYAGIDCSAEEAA
Assay: Tie-2 ELISA: angiopoietin-2 stimulated Tie2 autophosphorylation in Tie2-transfected CHO cells (Biological Experiment 1)
Assay type: cell-based
Parameters: expressed in transfected cells; host or cells: CHO (DHFR-deficient), stably transfected
Details: mean IC50; CHO Tie2/DHFR cells stimulated with Ang2-Fc
pIC50: −log10 of the molar value.
measure: pIC50

| structure.string | pIC50 |
| --- | --- |
| CC(C)(C)c1cc(-c2ccc(NC(=O)C(C)(C)c3ccccc3)cc2)c2c(N)n[nH]c2n1 | ≥ 6.30 |

(Q) What value of pIC50 has been reported for the following molecule? "CC(C)(C)c1cc(-c2ccc(NC(=O)Nc3cc(C(F)(F)F)ccc3F)cc2)c2c(N)n[nH]c2n1"
(A) ≥ 6.30

(Q) What value of pIC50 has been reported for the following molecule? "Nc1n[nH]c2nc(C3CC3)cc(-c3ccc(NC(=O)Nc4ccccc4)cc3)c12"
(A) ≥ 6.30

(Q) What value of pIC50 has been reported for the following molecule? "CC(C)(C)c1cc(-c2ccc(NC(=O)Nc3ccccc3)cc2)c2c(N)n[nH]c2n1"
(A) 5.70 to 6.30
